Data provenance is patent US11478474B2.

So I've got a bunch of molecules here, and I need their pIC50 values.
molecular target: phosphorylated BTK in Ramos cells (Homo sapiens (Human), UniProt Q06187); assay: Determination of phosphorylated BTK in Ramos cells (BTK phospho-Y223 HTRF); settings: anti-human IgM + hydrogen peroxide stimulation
Sequence (Q06187 whole entry): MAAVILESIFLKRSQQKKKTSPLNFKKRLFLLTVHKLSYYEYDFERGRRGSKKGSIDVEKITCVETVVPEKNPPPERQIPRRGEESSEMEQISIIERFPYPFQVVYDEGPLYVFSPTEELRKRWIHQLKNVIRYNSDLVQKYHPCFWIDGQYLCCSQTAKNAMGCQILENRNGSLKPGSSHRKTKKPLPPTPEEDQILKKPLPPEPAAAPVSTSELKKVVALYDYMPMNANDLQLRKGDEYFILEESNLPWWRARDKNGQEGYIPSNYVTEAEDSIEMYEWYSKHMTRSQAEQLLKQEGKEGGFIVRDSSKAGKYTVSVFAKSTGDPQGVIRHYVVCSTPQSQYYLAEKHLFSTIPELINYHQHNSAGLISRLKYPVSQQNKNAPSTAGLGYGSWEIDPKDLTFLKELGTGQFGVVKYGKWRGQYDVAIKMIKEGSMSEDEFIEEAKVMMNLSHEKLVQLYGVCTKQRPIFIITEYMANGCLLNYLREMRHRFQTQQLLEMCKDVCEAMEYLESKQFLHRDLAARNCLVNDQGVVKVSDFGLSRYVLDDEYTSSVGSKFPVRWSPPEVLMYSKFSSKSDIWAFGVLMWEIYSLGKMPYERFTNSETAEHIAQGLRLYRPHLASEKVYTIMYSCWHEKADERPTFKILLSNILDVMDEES
Quick note: pIC50 means taking -log10 of the concentration in moles per liter.

# lookup: C[C@H]1CN(C2COC2)CCN1c1ccc(Nc2cc(-c3ccnc(-n4ncn5c(c(F)c6ccccc65)c4=O)c3CO)cn(C)c2=O)nc1 [Compound 149] on phosphorylated BTK in Ramos cells (Homo sapiens (Human), UniProt Q06187), pIC50 = 8.10

Note to self: pIC50 of C[C@H]1CN(C2COC2)CCN1c1cnc(Nc2cc(-c3ccnc(-n4ccn5c6c(cc5c4=O)CC(C)(C)C6)c3CO)cn(C)c2=O)cn1 [Compound 43] with phosphorylated BTK in Ramos cells (Homo sapiens (Human), UniProt Q06187) was 8.70

Reported phosphorylated BTK in Ramos cells (Homo sapiens (Human), UniProt Q06187) pIC50 for item CC[C@H]1CN(C2COC2)CCN1c1ccc(Nc2cc(-c3ccnc(-n4ncn5c6c(cc5c4=O)CC(C)(C)C6)c3CO)cn(C)c2=O)nc1 [Compound 224] was 8.15

Sample COCCN1CCn2nc(Nc3cc(-c4ccnc(-n5ncn6c7c(cc6c5=O)CC(C)(C)C7)c4CO)cn(C)c3=O)cc2C1C (racemic) [Compound 110] , system: phosphorylated BTK in Ramos cells (Homo sapiens (Human), UniProt Q06187). Its pIC50 is 8.70

pIC50 on phosphorylated BTK in Ramos cells (Homo sapiens (Human), UniProt Q06187) for Cn1cc(-c2ccnc(-n3ccn4c5c(cc4c3=O)CCC5)c2CO)cc(Nc2cc3n(n2)CCN(C#N)C3)c1=O [Compound 142] is 7.22

Short answer on phosphorylated BTK in Ramos cells (Homo sapiens (Human), UniProt Q06187) for C[C@@H]1c2cc(Nc3cc(-c4ccnc(-n5ccn6c7c(cc6c5=O)CC(C)(C)C7)c4CO)cn(C)c3=O)nn2CCN1C1COC1 [Compound 137] , pIC50: 8.40

Value sought: pIC50, system phosphorylated BTK in Ramos cells (Homo sapiens (Human), UniProt Q06187), item COCCN(c1ccc(Nc2cc(-c3ccnc(-n4ccn5c6c(cc5c4=O)CC(C)(C)C6)c3CO)cn(C)c2=O)nc1)C(C)C [Compound 51] . Result: 8.10

phosphorylated BTK in Ramos cells (Homo sapiens (Human), UniProt Q06187) pIC50 of CC(C)n1cc(Nc2cc(-c3ccnc(-n4ccn5c6c(cc5c4=O)CC(C)(C)C6)c3CO)cn(C)c2=O)cn1 [Compound 173] is 7.55

I looked up CCn1cc(Nc2cc(-c3ccnc(-n4ccn5c6c(cc5c4=O)CC(C)(C)C6)c3CO)cn(C)c2=O)cn1 [Compound 172] and its pIC50 for phosphorylated BTK in Ramos cells (Homo sapiens (Human), UniProt Q06187) was 7.96

# CC1CCc2cc3c(=O)n(-c4nccc(-c5cc(Nc6ccc(N7CCN(C8COC8)C[C@@H]7C)cn6)c(=O)n(C)c5)c4CO)ccn3c2C1 (mixture of isomers) [Compound 78] with phosphorylated BTK in Ramos cells (Homo sapiens (Human), UniProt Q06187): pIC50 is 8.52

Item CCn1cc(-c2ccnc(-n3ncn4c5c(cc4c3=O)CC(C)(C)C5)c2CO)cc(Nc2ccc(N3CCN(C4COC4)C[C@@H]3C)cn2)c1=O [Compound 211] was tested on phosphorylated BTK in Ramos cells (Homo sapiens (Human), UniProt Q06187); the reported pIC50 is 7.70

Item Cn1cc(-c2ccnc(-n3ncn4c5c(cc4c3=O)CC(C)(C)C5)c2CO)cc(Nc2ccc(N3CCN(C4COC4)CC3(C)C)cn2)c1=O [Compound 191] ; assay system phosphorylated BTK in Ramos cells (Homo sapiens (Human), UniProt Q06187); pIC50 reported as 8.00

GET /values?item= Cn1cc(-c2ccnc(-n3ncn4c5c(cc4c3=O)CC(C)(C)C5)c2CO)cc(Nc2cc3n(n2)CCN(C#N)C3)c1=O [Compound 143] &system= phosphorylated BTK in Ramos cells (Homo sapiens (Human), UniProt Q06187) returns pIC50: 8.30

Tested on phosphorylated BTK in Ramos cells (Homo sapiens (Human), UniProt Q06187), the item C[C@H]1CN(C2COC2)CCN1c1ccc(Nc2cc(-c3ccnc(-n4ccn5c6c(cc5c4=O)CC(C)(C)C6)c3CO)cn(C)c2=O)nn1 [Compound 204] showed pIC50 equal to 8.15

Noted pIC50 for CC1CCc2c(cc3c(=O)n(-c4nccc(-c5cc(Nc6ccc(N7CCN(C8COC8)C[C@@H]7C)cn6)c(=O)n(C)c5)c4CO)ccn23)C1 (mixture of isomers) [Compound 187] , tested on phosphorylated BTK in Ramos cells (Homo sapiens (Human), UniProt Q06187): 7.55

phosphorylated BTK in Ramos cells (Homo sapiens (Human), UniProt Q06187) pIC50 of Cn1cc(-c2ccnc(-n3ccn4c5c(cc4c3=O)CC(C)(C)C5)c2CO)cc(Nc2cn(CC(F)(F)F)nn2)c1=O [Compound 30] is 8.10

Entry Cc1cc(Nc2cc(-c3ccnc(-n4ccn5c6c(cc5c4=O)CC(C)(C)C6)c3CO)cn(C)c2=O)no1 [Compound 87] ; assay system phosphorylated BTK in Ramos cells (Homo sapiens (Human), UniProt Q06187); pIC50 recorded at 8.52

C[C@H]1CN(C2COC2)CCN1c1ccc(Nc2cc(-c3ccnc(-n4ccn5c6c(cc5c4=O)CC(F)(F)CC6)c3CO)cn(C)c2=O)nc1 [Compound 58] tested on phosphorylated BTK in Ramos cells (Homo sapiens (Human), UniProt Q06187) gave pIC50: 8.40

phosphorylated BTK in Ramos cells (Homo sapiens (Human), UniProt Q06187) pIC50 of Cn1cc(-c2ccnc(-n3ccn4c5c(cc4c3=O)CC(C)(C)C5)c2CO)cc(Nc2ccc(C3CN(C4COC4)C3)cn2)c1=O [Compound 140] is 7.96

Form field, pIC50 with phosphorylated BTK in Ramos cells (Homo sapiens (Human), UniProt Q06187), item Cc1ccc(Nc2cc(-c3ccnc(-n4ccn5c6c(cc5c4=O)CC(C)(C)C6)c3CO)cn(C)c2=O)nc1 [Compound 125] : 7.68

The measured pIC50 that COCCN1CCN(c2ccc(Nc3cc(-c4ccnc(-n5ccn6c7c(cc6c5=O)CC(C)(C)C7)c4CO)cn(C)c3=O)nc2)C(C)(C)C1 [Compound 226] showed for phosphorylated BTK in Ramos cells (Homo sapiens (Human), UniProt Q06187) is 7.96

Short answer on phosphorylated BTK in Ramos cells (Homo sapiens (Human), UniProt Q06187) for Cn1cc(-c2ccnc(-n3ccn4c(c(F)c5ccccc54)c3=O)c2CO)cc(Nc2ccc(C3CN(C4COC4)C3)cn2)c1=O [Compound 183] , pIC50: 7.17

The molecule CC[C@H]1CN(C2COC2)CCN1c1ccc(Nc2cc(-c3ccnc(-n4ccn5c6c(cc5c4=O)CC(C)(C)C6)c3CO)cn(C)c2=O)nc1 [Compound 91] , when measured on phosphorylated BTK in Ramos cells (Homo sapiens (Human), UniProt Q06187), yielded pIC50 of 8.40

Query Cn1cc(-c2ccnc(-n3ncn4c5c(cc4c3=O)CC(C)(C)C5)c2CO)cc(Nc2cc3n(n2)CCOC3)c1=O [Compound 156] on phosphorylated BTK in Ramos cells (Homo sapiens (Human), UniProt Q06187); pIC50 returned: 7.92

Summary: [2H]C([2H])([2H])n1cc(-c2ccnc(-n3ccn4c5c(cc4c3=O)CC(C)(C)C5)c2CO)cc(Nc2ccc(N3CCN(C4COC4)C[C@@H]3C)cn2)c1=O [Compound 39] , phosphorylated BTK in Ramos cells (Homo sapiens (Human), UniProt Q06187), pIC50 = 8.52
